system: Escherichia coli β7342 Δdeo tdk cdd::Tn10 (dckH R104Q, amkG wt); assay: microbe, parasite or virus in culture; format: cell-based; settings: strain β7342, dckH R104Q, amkG wt
REPORTED_METRIC: minimum inhibitory concentration (MIC)

NNc1ccn([C@H]2C[C@H](O)[C@@H](CO)O2)c(=O)n1 | ≦1.25 microM
Nc1ncn([C@H]2C[C@H](O)[C@@H](CO)O2)c(=O)n1 | ≦1.25 microM

====

test system: Escherichia coli β7347 Δdeo tdk cdd::Tn10 (dckH R104Q, amkG T39A); experiment: microbe, parasite or virus in culture; assay type: cell-based; conditions: strain β7347, dckH R104Q, amkG T39A
REPORTED_METRIC: minimum inhibitory concentration (MIC)

Note to self: minimum inhibitory concentration (MIC) recorded for NNc1ccn([C@H]2C[C@H](O)[C@@H](CO)O2)c(=O)n1 was 5 µM
